assay: Phase Ib trial: pharmacokinetics of linperlisib 80 mg once daily; assay type: in vivo, human; settings: human; single dose oral 80 mg qd; n = 13; plasma; read-out: AUC0-∞, mean (SD)
Measurement kind: AUC(0-inf) (ng·h/mL)
Give just the numeric value; ng·h/mL need not be written.

-- ask Consider the compound COc1ncc(-c2nc(N3CCOCC3)nc3c(CN4CCC(C(C)(C)O)CC4)cc(F)cc23)cc1NS(C)(=O)=O and give its measured AUC(0-inf).
-- reply 7260

---

test: Phase Ib trial: pharmacokinetics of linperlisib 80 mg once daily; format: in vivo, human; conditions: human; single dose oral 80 mg qd; n = 13; plasma; read-out: T1/2, mean (SD) (converted)
Measurement kind: half-life (h)
Could you give me the number in h? Just the number is fine.

-- ask Query (molecule): COc1ncc(-c2nc(N3CCOCC3)nc3c(CN4CCC(C(C)(C)O)CC4)cc(F)cc23)cc1NS(C)(=O)=O ; field requested: half-life
-- reply 14.3
